Origin of the recorded values: patent US20170306005A1

Molecular target: T1, human tenascin-C rCd4-His-FBG (rat; human, UniProt P05540 207-392, limits assumed)
T1 construct: domain: domains 3 and 4; C-terminal FBG fusion; biotinylated in the ELISA and HTRF screens; also called Hu TNC; human TNC rCd4-His-FBG; not shown: 6His tag
T1 sequence (chain (part 1 of 2)): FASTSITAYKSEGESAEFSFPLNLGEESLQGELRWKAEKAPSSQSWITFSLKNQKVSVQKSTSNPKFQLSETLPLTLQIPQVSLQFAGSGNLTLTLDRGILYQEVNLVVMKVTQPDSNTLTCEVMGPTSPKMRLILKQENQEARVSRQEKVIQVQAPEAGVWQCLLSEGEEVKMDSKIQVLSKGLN
T1 sequence (chain (part 2 of 2)): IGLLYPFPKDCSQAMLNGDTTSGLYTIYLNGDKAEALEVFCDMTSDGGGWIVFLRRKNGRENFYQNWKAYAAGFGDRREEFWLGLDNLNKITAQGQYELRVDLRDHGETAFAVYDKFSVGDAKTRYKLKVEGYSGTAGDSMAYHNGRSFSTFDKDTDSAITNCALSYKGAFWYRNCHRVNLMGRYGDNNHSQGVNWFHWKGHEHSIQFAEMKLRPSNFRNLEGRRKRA
Assay: SPR off-rate screen, captured IgG4 supernatant, 25 C
We begin with a simple list: items and their reported log10 of koff.
Scale: decimal log of koff, koff in s⁻¹.

Please review the following examples before continuing.
1. 162_02_C3 human IgG4 (antibody, V domains shown, human IgG4 with hinge S241P; also called Antibody 162 02 C3 (derived from 2A5)) VH: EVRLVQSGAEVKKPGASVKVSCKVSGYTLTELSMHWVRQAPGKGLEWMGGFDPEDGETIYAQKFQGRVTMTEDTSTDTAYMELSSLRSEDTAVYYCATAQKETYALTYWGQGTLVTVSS VL: DIQMTQSPASLPTSVGDRVTITCRASQYIQGFLNWYQQKPGKAPRLLIYAASTLQDGVPSRFSGSGYGTDFTLTISSLQPEDFATYYCMQHYDGPWTFGQGTKVEIKR ... -5.83
2. 161_01_A12 human IgG4 (antibody, V domains shown, human IgG4 with hinge S241P; also called Antibody 161 01 A12 (derived from 2A5)) VH: EVRLVQSGAEVKKPGASVKVSCKVSGYTLTELSMHWVRQAPGKGLEWMGGFDPEDGETIYAQKFQGRVTMTEDTSTDTAYMELSSLRSEDTAVYYCATAQPTALANTYWGQGTLVTVSS VL: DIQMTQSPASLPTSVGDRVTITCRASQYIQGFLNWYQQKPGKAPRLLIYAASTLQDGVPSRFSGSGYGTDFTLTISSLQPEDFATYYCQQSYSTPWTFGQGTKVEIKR ... -5.89
3. 160_01_G2 human IgG4 (antibody, V domains shown, human IgG4 with hinge S241P; also called Antibody 160 01 G2 (derived from 2A5)) VH: EVRLVQSGAEVKKPGASVKVSCKVSGYTLTELSMHWVRQAPGKGLEWMGGFDPEDGETIYAQKFQGRVTMTEDTSTDTAYMELSSLRSEDTAVYYCATYTLDNMALTYWGQGTLVTVSS VL: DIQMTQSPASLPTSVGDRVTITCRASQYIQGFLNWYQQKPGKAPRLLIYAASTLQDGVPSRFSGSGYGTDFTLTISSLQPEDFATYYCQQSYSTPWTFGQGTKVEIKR ... -4.90
4. 163_02_D11 human IgG4 (antibody, V domains shown, human IgG4 with hinge S241P; also called Antibody 163 02 D11 (derived from 2A5)) VH: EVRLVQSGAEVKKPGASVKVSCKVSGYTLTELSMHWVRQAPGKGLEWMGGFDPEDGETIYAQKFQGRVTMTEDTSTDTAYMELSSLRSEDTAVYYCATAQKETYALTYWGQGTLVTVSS VL: DIQMTQSPASLPTSVGDRVTITCRASQYIQGFLNWYQQKPGKAPRLLIYAASTLQDGVPSRFSGSGYGTDFTLTISSLQPEDFATYYCLHHYKSPWTFGQGTKVEIKR ... -6.49
5. 165_13_B1 human IgG4 (antibody, V domains shown, human IgG4 with hinge S241P) VH: QVQLVESGGGLVQPGRSLRLSCAASGFTFDDYAMHWVRQAPGKGLEWVSGISGSGGSTYYADSVKGRFTISRDNAKNSLYLQMNSLRAEDTALYYCAKVMSSMEDAFDIWGQGTMVTVSS VL: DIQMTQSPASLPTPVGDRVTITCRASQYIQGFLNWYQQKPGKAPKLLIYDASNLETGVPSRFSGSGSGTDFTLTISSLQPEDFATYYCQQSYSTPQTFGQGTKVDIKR ... -5.82
6. 2A5 human IgG4 (antibody, V domains shown, human IgG4 with hinge S241P; also called 2A5 parent) VH: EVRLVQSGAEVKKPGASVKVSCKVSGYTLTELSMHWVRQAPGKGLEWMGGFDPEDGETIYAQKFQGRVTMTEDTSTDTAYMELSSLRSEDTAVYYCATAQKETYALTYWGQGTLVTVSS VL: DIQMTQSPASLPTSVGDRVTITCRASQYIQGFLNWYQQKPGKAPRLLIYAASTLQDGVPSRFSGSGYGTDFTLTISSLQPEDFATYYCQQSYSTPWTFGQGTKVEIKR ... -2.04

input: Would you kindly share the measured log10 of koff for B12 human IgG4 (antibody, V domains shown, human IgG4 with hinge S241P; also called B12 parent; B12-hIgG4) VH: QVQLVESGGGLVQPGRSLRLSCAASGFTFDDYAMHWVRQAPGKGLEWVSGISGSGGSTYYADSVKGRFTISRDNAKNSLYLQMNSLRAEDTALYYCAKDISAVPDTFDIWGQGTMVTVSS VL: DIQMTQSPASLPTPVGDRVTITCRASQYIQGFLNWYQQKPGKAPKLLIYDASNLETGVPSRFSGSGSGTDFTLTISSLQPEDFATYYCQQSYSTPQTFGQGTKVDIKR ?
output: -3.82

input: For the binder 162_02_C2 human IgG4 (antibody, V domains shown, human IgG4 with hinge S241P; also called Antibody 162 02 C2 (derived from 2A5)) VH: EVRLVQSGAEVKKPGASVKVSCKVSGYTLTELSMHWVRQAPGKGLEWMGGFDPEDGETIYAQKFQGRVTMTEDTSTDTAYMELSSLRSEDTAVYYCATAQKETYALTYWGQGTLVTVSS VL: DIQMTQSPASLPTSVGDRVTITCRASQYIQGFLNWYQQKPGKAPRLLIYAASTLQDGVPSRFSGSGYGTDFTLTISSLQPEDFATYYCMHHYRAPWTFGQGTKVEIKR , what log10 of koff is on record?
output: -4.94
